# PROTOCOL_DESCRIPTION: Photophysical characterization of probes and uncaged forms (relative fluorescence quantum yield, extinction coefficient, brightness)
# Type: physicochemical
# TEST_SETTINGS: Table 3; brightness compared to that of DPPC-TC-H2S
MEASURED_QUANTITY: Relative Brightness

Consider the compound shown here: O=c1oc2cc(O)ccc2cc1-n1cc(COCCOCCOCCO)nn1 What is its recorded Relative Brightness?
143.2

(I) CCCCCCCCCCCCCCCC(=O)OCC(COP(=O)([O-])OCC[N+](C)(C)Cc1cn(-c2cc3ccc(O)cc3oc2=O)nn1)OC(=O)CCCCCCCCCCCCCCC (racemic)
(II) CCCCCCCCCCCCCCCC(=O)OCC(COP(=O)([O-])OCC[N+](C)(C)Cc1cn(-c2cc3ccc(OCc4ccc(N=[N+]=[N-])cc4)cc3oc2=O)nn1)OC(=O)CCCCCCCCCCCCCCC (racemic)
Sorting ascending by Relative Brightness, which comes first: I or II ? Reply briefly: the label of your chosen item.
II

----------
# PROTOCOL_DESCRIPTION: Photophysical characterization of probes and uncaged forms (relative fluorescence quantum yield, extinction coefficient, brightness)
# Type: physicochemical
# TEST_SETTINGS: in M⁻¹·cm⁻¹ (unit assumed)
MEASURED_QUANTITY: Brightness

Given CCCCCCCCCCCCCCCC(=O)OCC(COP(=O)([O-])OCC[N+](C)(C)Cc1cn(-c2cc3ccc(OCc4ccc(N=[N+]=[N-])cc4)cc3oc2=O)nn1)OC(=O)CCCCCCCCCCCCCCC (racemic) , state its recorded Brightness.
72

Could you tell me which Brightness is on file for CCCCCCCCCCCCCCCC(=O)OCC(COP(=O)([O-])OCC[N+](C)(C)Cc1cn(-c2ccc3c(c2)C(=O)OC32c3ccc(OC(=O)OCc4ccc(B5OC(C)(C)C(C)(C)O5)cc4)cc3Oc3cc(OC(=O)OCc4ccc(B5OC(C)(C)C(C)(C)O5)cc4)ccc32)nn1)OC(=O)CCCCCCCCCCCCCCC (racemic) ?
214

Any idea what its Brightness is? The molecule is CCCCCCCCCCCCCCCC(=O)OCC(COP(=O)([O-])OCC[N+](C)(C)Cc1cn(-c2ccc3c(c2)C(=O)OC32c3ccc(O)cc3Oc3cc(O)ccc32)nn1)OC(=O)CCCCCCCCCCCCCCC (racemic)
18264

(I) O=C(Oc1ccc(CCC(=O)C(F)(F)F)cc1)Oc1ccc2cc(-n3cc(COCCOCCOCCO)nn3)c(=O)oc2c1
(II) CC1(C)OB(c2ccc(COC(=O)Oc3ccc4c(c3)Oc3cc(OC(=O)OCc5ccc(B6OC(C)(C)C(C)(C)O6)cc5)ccc3C43OC(=O)c4cc(-n5cc(COCCOCCOCCO)nn5)ccc43)cc2)OC1(C)C
I would appreciate it if you could say which entry, I or II , has the lower Brightness value. // return label of chosen record
I

----------
# PROTOCOL_DESCRIPTION: Photophysical characterization of probes and uncaged forms (relative fluorescence quantum yield, extinction coefficient, brightness)
# Format: physicochemical
MEASURED_QUANTITY: Exmax (nm)

Could you share which Exmax value was measured for CCCCCCCCCCCCCCCC(=O)OCC(COP(=O)([O-])OCC[N+](C)(C)Cc1cn(-c2cc3ccc(OC(=O)Oc4ccc(CCC(=O)C(F)(F)F)cc4)cc3oc2=O)nn1)OC(=O)CCCCCCCCCCCCCCC (racemic) ?
395.0

What value of Exmax has been recorded for this entry: CCCCCCCCCCCCCCCC(=O)OCC(COP(=O)([O-])OCC[N+](C)(C)Cc1cn(-c2ccc3c(c2)C(=O)OC32c3ccc(O)cc3Oc3cc(O)ccc32)nn1)OC(=O)CCCCCCCCCCCCCCC (racemic)
498.1

Which Exmax reading was recorded for the molecule [N-]=[N+]=Nc1ccc(COc2ccc3cc(-n4cc(COCCOCCOCCO)nn4)c(=O)oc3c2)cc1 ?
392.3

Request the reported Exmax associated with O=c1oc2cc(O)ccc2cc1-n1cc(COCCOCCOCCO)nn1
397.0

Looking for the measured Exmax of O=C(Oc1ccc(CCC(=O)C(F)(F)F)cc1)Oc1ccc2cc(-n3cc(COCCOCCOCCO)nn3)c(=O)oc2c1 , can you help?
400.0

I have this molecule here, CCCCCCCCCCCCCCCC(=O)OCC(COP(=O)([O-])OCC[N+](C)(C)Cc1cn(-c2cc3ccc(OCc4ccc(N=[N+]=[N-])cc4)cc3oc2=O)nn1)OC(=O)CCCCCCCCCCCCCCC (racemic) , and I need its recorded Exmax.
396.5

Look up Exmax for this molecule: CCCCCCCCCCCCCCCC(=O)OCC(COP(=O)([O-])OCC[N+](C)(C)Cc1cn(-c2cc3ccc(O)cc3oc2=O)nn1)OC(=O)CCCCCCCCCCCCCCC (racemic)
398.0

Look up Exmax: CC1(C)OB(c2ccc(COC(=O)Oc3ccc4c(c3)Oc3cc(OC(=O)OCc5ccc(B6OC(C)(C)C(C)(C)O6)cc5)ccc3C43OC(=O)c4cc(-n5cc(COCCOCCOCCO)nn5)ccc43)cc2)OC1(C)C
492.0

If you can, please state the reported Exmax value of CCCCCCCCCCCCCCCC(=O)OCC(COP(=O)([O-])OCC[N+](C)(C)Cc1cn(-c2ccc3c(c2)C(=O)OC32c3ccc(OC(=O)OCc4ccc(B5OC(C)(C)C(C)(C)O5)cc4)cc3Oc3cc(OC(=O)OCc4ccc(B5OC(C)(C)C(C)(C)O5)cc4)ccc32)nn1)OC(=O)CCCCCCCCCCCCCCC (racemic) .
495.2

Report Exmax for O=C1OC2(c3ccc(O)cc3Oc3cc(O)ccc32)c2ccc(-n3cc(COCCOCCOCCO)nn3)cc21 please.
494.3
